Values compiled from paper PMC5513444.

// reported melting point for each item listed

>  <compound>
COc1ccc(Nc2cc(-c3ccccc3)nc3ncnn23)cc1 [Compound 37]

>  <melting point>
200 to 202 °C

$$$$
>  <compound>
CCCCNc1cc(-c2ccccc2)nc2ncnn12 [Compound 32]

>  <melting point>
125 to 126 °C

$$$$
>  <compound>
COCCNc1cc(-c2ccccc2)nc2ncnn12 [Compound 33]

>  <melting point>
116 to 118 °C

$$$$
>  <compound>
Nc1cc(-c2ccccc2)nc2ncnn12 [Compound 28]

>  <melting point>
302 to 304 °C

$$$$
